Assay: Biodistribution of ^111In-labeled peptides in B16-F1 melanoma-bearing mice
Format: in vivo, mouse (B6D2F1)
Settings: female, B6D2F1 (C57BL/6 × DBA/2F1 hybrids), mouse, skin, iv, total radioactivity; ^111In-labeled peptide, 185 kBq i.v., 4 h; mean ± SEM of three experiments, n = 5 animals each; read-out: Skin uptake
Method: About 5 × 10^5 B16-F1 cells were implanted subcutaneously to female B6D2F1 mice (C57BL/6 × DBA/2F1 hybrids; breeding pairs obtained from IFFA-CREDO, France). […] The radioactivity emitted by each organ was measured in a γ-counter to determine the tissue uptake as percentage of the injected dose (ID) per gram of tissue. The total of injected radioactivity per animal was determined by extrapolation from the counts of a standard collected from the injection solution for each animal. […]
Non-standard residues stand in square brackets, D forms with d. Residues, ends and D or L forms follow the SMILES beside them. *: point of attachment. DOTA = O=C(O)CN1CCN(CC(=O)O)CCN(CC(=O)*)CCN(CC(=O)O)CC1; pY = N[C@@H](Cc1ccc(OP(=O)(O)O)cc1)C(=O)O; Nle = CCCC[C@H](N)C(=O)O

# Compound, Unit label, tissue uptake at 4 h
rows = [
    ("CCCC[C@H](NC(C)=O)C(=O)N[C@@H](CC(=O)O)C(=O)N[C@@H](Cc1c[nH]cn1)C(=O)N[C@H](Cc1ccccc1)C(=O)N[C@@H](CCCNC(=N)N)C(=O)N[C@@H](Cc1c[nH]c2ccccc12)C(=O)NCC(=O)N[C@@H](CCCCNC(=O)CN1CCN(CC(=O)O)CCN(CC(=O)O)CCN(CC(=O)O)CC1)C(=O)N[C@H](CC(=O)O)C(=O)N[C@H](CC(=O)O)C(=O)O [DOTA-NAP-D-Asp-D-Asp] (Ac-[Nle]DH[dF]RWGK(DOTA)[dD][dD]-OH)", "%ID/g", 0.06),
    ("CCCC[C@H](NC(=O)[C@H](Cc1ccc(OP(=O)(O)O)cc1)NC(=O)CNC(=O)CN1CCN(CC(=O)O)CCN(CC(=O)O)CCN(CC(=O)O)CC1)C(=O)N[C@@H](CC(=O)O)C(=O)N[C@@H](Cc1c[nH]cn1)C(=O)N[C@H](Cc1ccccc1)C(=O)N[C@@H](CCCNC(=N)N)C(=O)N[C@@H](Cc1c[nH]c2ccccc12)C(N)=O [DOTA-Phospho-MSH2-9] ({DOTA}-G[pY][Nle]DH[dF]RW-NH2)", "%ID/g", 0.12),
]
